From: patent US20240366639A1

# tested on: GLP-1 Receptor (GLP1R) (Homo sapiens, UniProt P43220)
# Construct: host or cells: HEK293/GLP1R/CRE-LUC
# Sequence (P43220 24-463): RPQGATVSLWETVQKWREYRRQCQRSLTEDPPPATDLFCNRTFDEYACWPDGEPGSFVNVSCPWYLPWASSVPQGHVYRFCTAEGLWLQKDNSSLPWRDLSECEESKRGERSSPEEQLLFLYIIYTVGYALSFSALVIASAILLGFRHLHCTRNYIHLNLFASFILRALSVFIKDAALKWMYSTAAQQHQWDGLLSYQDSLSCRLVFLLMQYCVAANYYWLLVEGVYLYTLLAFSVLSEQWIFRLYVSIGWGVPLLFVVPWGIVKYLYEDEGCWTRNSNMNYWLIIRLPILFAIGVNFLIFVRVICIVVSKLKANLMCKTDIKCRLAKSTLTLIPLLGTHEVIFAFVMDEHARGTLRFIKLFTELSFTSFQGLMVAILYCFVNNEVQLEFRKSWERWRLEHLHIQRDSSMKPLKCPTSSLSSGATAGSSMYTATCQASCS
# test description: GLP-1R agonist cAMP stimulation assay (Method 3)
# Type: cell-based
# measurement context: HEK293/GLP1R/CRE-LUC cells (HDB), Method 3, 30 min incubation; read-out: GLP1R cAMP Stimulation DR: EC50 (nM) [Species: Human, Assay Cell Line: HDB]
parameter: EC50

molecule: Cc1cc(-n2nc3c(c2-n2ccn(-c4ccc(P(C)(C)=O)c(OC(F)(F)F)c4)c2=O)[C@H](C)N(C(=O)c2cc4cc(C5CCOCC5)ccc4n2[C@@]2(c4noc(=O)[nH]4)C[C@@H]2C)CC3)cc(C)c1F [Compound 123a]
tested on: GLP-1 Receptor (GLP1R) (Homo sapiens, UniProt P43220)
EC50: 0.2 to 0.5 nM
--
molecule: Cc1cc(-n2nc3c(c2-n2ccn(-c4cccc(P(C)(C)=O)c4)c2=O)[C@H](C)N(C(=O)c2cc4cc(C5CCOCC5)ccc4n2[C@@]2(c4noc(=O)[nH]4)C[C@@H]2C)CC3)cc(C)c1F [Compound 109a]
tested on: GLP-1 Receptor (GLP1R) (Homo sapiens, UniProt P43220)
EC50: 0.1 to 0.2 nM
--
molecule: CCP(=O)(CC)c1ncc(-n2ccn(-c3c4c(nn3-c3cc(C)c(F)c(C)c3)CCN(C(=O)c3cc5cc(C6CCOCC6)ccc5n3[C@@]3(c5noc(=O)[nH]5)C[C@@H]3C)[C@H]4C)c2=O)cc1NC [Compound 139a]
tested on: GLP-1 Receptor (GLP1R) (Homo sapiens, UniProt P43220)
EC50: < 0.1 nM

Now look at this entry.
Report EC50, nothing else, for this molecule: Cc1cc(-n2nc3c(c2-n2ccn(-c4cccc(P(C)(C)=O)n4)c2=O)[C@H](C)N(C(=O)c2cc4cc(C5CCOCC5)ccc4n2[C@@]2(c4noc(=O)[nH]4)C[C@@H]2C)CC3)cc(C)c1F [Compound 113a]
0.2 to 0.5 nM

----------
# tested on: GLP-1 Receptor (GLP1R) (Homo sapiens, UniProt P43220)
# Construct: host or cells: HEK293/GLP1R/CRE-LUC
# test description: GLP-1R agonist cAMP stimulation assay (Method 3)
# Type: cell-based
# measurement context: HEK293/GLP1R/CRE-LUC cells (HDB), Method 3, 30 min incubation; read-out: GLP1R cAMP Stimulation DR: EC50 (nM) [Species: Human, Assay Cell Line: HDB]
parameter: EC50

Example molecules with recorded EC50:
molecule: CNc1cc(-n2ccn(-c3c4c(nn3-c3cc(C)c(F)c(C)c3)CCN(C(=O)c3cc5cc(C6CCOCC6)ccc5n3C3(c5noc(=O)[nH]5)CC3)[C@H]4C)c2=O)ccc1P(=O)(C1CC1)C1CC1 [Compound 148a]
EC50: < 0.1 nM
//
molecule: CCP(=O)(CC)c1ccc(-n2ccn(-c3c4c(nn3-c3cc(C)c(F)c(C)c3)CCN(C(=O)c3cc5cc(C6CCOCC6)ccc5n3[C@@]3(c5noc(=O)[nH]5)C[C@@H]3C)[C@H]4C)c2=O)cc1OC(F)F [Compound 136a]
EC50: 0.2 to 0.5 nM
//
molecule: CCP(=O)(CC)c1ccc(-n2ccn(-c3c4c(nn3-c3cc(C)c(F)c(C)c3)CCN(C(=O)c3cc5cc(C6CCOCC6)ccc5n3[C@@]3(c5noc(=O)[nH]5)C[C@@H]3C)[C@H]4C)c2=O)cc1NC [Compound 121a]
EC50: < 0.1 nM

Report EC50, nothing else, for this molecule: Cc1cc(-n2nc3c(c2-n2ccn(Cc4cccc(P(C)(C)=O)c4)c2=O)[C@H](C)N(C(=O)c2cc4cc(C5CCOCC5)ccc4n2[C@@]2(c4noc(=O)[nH]4)C[C@@H]2C)CC3)cc(C)c1F [Compound 147a]
0.5 to 5 nM

Report EC50, nothing else, for this molecule: CCP(=O)(CC)c1ccc(-n2ccn(-c3c4c(nn3-c3cc(C)c(F)c(C)c3)CCN(C(=O)c3cc5cc(C6CCOCC6)ccc5n3[C@@]3(c5noc(=O)[nH]5)C[C@@H]3C)[C@H]4C)c2=O)cc1OC [Compound 118a]
< 0.1 nM

Report EC50, nothing else, for this molecule: CCNc1cc(-n2ccn(-c3c4c(nn3-c3cc(C)c(F)c(C)c3)CCN(C(=O)c3cc5cc(C6CCOCC6)ccc5n3[C@@]3(c5noc(=O)[nH]5)C[C@@H]3C)[C@H]4C)c2=O)ccc1P(=O)(CC)CC [Compound 120a]
< 0.1 nM

Report EC50, nothing else, for this molecule: Cc1cc(-n2nc3c(c2-n2ccn(-c4ccc(P(C)(C)=O)c(N5CCOCC5)c4)c2=O)[C@H](C)N(C(=O)c2cc4cc(C5CCOCC5)ccc4n2[C@@]2(c4noc(=O)[nH]4)C[C@@H]2C)CC3)cc(C)c1F [Compound 125a]
0.2 to 0.5 nM

Report EC50, nothing else, for this molecule: CCP(=O)(CC)c1ccc(-n2ccn(-c3c4c(nn3-c3cc(C)c(F)c(C)c3)CCN(C(=O)c3cc5cc(C6CCOCC6)ccc5n3[C@@]3(c5noc(=O)[nH]5)C[C@@H]3C)[C@H]4C)c2=O)cc1NS(C)(=O)=O [Compound 116a]
0.2 to 0.5 nM

Report EC50, nothing else, for this molecule: CCP(=O)(CC)c1ccc(-n2ccn(-c3c4c(nn3-c3cc(C)c(F)c(C)c3)CCN(C(=O)c3cc5cc([C@H]6CCOC(C)(C)C6)ccc5n3[C@@]3(c5noc(=O)[nH]5)C[C@@H]3C)[C@H]4C)c2=O)cc1NC [Compound 146b]
< 0.1 nM
